Values compiled from ChEMBL document CHEMBL2331212.

tgt: UniProt P14416
test.description: Displacement of [3H]spiperone from human dopamine D2short receptor expressed in CHO cells
Assay type: cell-based
readout.label: Ki (nM)

> print(dat)
                         chemical.structure  experimental.result
1  c1ccc(-n2cc(CN3CCN(c4cc5ccc4CCc4ccc(cc4)CC5)CC3)cn2)cc1                   28

----------
tgt: D(2) dopamine receptor (Homo sapiens, UniProt P14416)
Sequence (P14416 whole entry): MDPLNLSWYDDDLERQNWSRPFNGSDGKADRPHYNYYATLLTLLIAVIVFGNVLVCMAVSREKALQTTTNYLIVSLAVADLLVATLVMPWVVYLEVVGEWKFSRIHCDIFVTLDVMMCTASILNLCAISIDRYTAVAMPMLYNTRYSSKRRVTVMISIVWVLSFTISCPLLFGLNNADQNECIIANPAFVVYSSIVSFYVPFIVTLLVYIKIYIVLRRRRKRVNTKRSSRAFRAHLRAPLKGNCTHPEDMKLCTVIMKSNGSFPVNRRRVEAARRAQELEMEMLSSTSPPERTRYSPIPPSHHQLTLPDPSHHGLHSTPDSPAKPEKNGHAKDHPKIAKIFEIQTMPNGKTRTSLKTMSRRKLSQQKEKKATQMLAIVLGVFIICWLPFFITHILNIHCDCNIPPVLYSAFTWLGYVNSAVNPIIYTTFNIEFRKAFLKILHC
test.description: Displacement of [3H]spiperone from human dopamine D2long receptor expressed in CHO cells
Type: cell-based
readout.label: Ki (µM)

> print(dat)
                         chemical.structure                                       tgt  readout.label  unit.spec  experimental.result
1  c1ccc(-n2cc(CN3CCN(c4cc5ccc4CCc4ccc(cc4)CC5)CC3)cn2)cc1  D(2) dopamine receptor (Homo sapiens, UniProt P14416)             Ki         µM                0.039

----------
Entries and their measured pKi follow.
tgt: D(1A) dopamine receptor (Bos taurus)
Sequence (Q95136 whole entry): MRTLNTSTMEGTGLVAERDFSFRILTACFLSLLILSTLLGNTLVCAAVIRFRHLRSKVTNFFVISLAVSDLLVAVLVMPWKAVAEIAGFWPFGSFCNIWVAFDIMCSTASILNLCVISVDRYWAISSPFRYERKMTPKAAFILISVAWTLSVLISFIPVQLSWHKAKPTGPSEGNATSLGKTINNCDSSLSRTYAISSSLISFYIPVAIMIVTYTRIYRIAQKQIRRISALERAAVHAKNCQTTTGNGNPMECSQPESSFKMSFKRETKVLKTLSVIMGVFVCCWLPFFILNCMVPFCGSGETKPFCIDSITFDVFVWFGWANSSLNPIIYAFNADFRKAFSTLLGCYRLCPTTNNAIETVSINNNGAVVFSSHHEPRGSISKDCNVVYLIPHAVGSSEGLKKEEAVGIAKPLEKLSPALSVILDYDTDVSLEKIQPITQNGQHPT
test.description: Displacement of [3H]SCH23390 from dopamine D1 receptor in bovine striatum
pKi: −log10 of the molar value.
readout.label: pKi

> print(dat)
                         chemical.structure  experimental.result
1                         NCCc1ccc(O)c(O)c1                 6.36
2  c1ccc(-n2cc(CN3CCN(c4cc5ccc4CCc4ccc(cc4)CC5)CC3)cn2)cc1                 5.59
3   c1ccc(N2CCN(Cc3cnn(-c4ccccc4)c3)CC2)cc1                 5.80
